# target.or.system: T1, cynomolgus Tim-3 expressed on CHO cells (cynomolgus monkey)
# T1 construct: also called cTim-3; Cyno Tim-3 (CHO)
# T1 chain: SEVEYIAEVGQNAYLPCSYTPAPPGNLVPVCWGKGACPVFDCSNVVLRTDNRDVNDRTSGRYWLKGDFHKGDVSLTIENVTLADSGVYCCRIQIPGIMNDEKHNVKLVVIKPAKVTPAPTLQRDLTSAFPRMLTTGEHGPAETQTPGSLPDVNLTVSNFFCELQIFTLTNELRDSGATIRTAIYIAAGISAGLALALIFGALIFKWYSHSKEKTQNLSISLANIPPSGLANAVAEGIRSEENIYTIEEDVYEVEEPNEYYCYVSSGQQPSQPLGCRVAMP
# test.name: flow cytometry, CHO-cyno Tim-3 cells
pKd: −log10 of the molar value.

binder: h22E11-VK3-11 × h22E11-VH4-30-4 (antibody, V domains shown, Humanized m22E11) VH: QVQLQESGPGLVKPSQTLSLTCTVSGFSLTSYGVHWIRQPPGKGLEWLVVIWSDGSTTYNPSLKSRVTISKDTSKNQVSLKLSSVTAADTAVYYCARQGGYRYDDAMDYWGQGTLVTVSS VL: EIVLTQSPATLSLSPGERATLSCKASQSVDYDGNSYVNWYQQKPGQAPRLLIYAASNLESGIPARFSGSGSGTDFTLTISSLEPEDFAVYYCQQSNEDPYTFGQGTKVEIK
pKd: 8.35
--
binder: h22E11-VK1-39 × h22E11-VH3-23 (antibody, V domains shown, Humanized m22E11) VH: EVQLLESGGGLVQPGGSLRLSCAVSGFSLTSYGVHWVRQAPGKGLEWLVVIWSDGSTTYNDSVKGRFTISKDNSKNTVYLQMNSLRAEDTAVYYCARQGGYRYDDAMDYWGQGTLVTVSS VL: DIQLTQSPSSLSASVGDRVTITCKASQSVDYDGNSYVNWYQQKPGKAPKLLIYAASNLESGVPSRFSGSGSGTDFTLTISSLQPEDFATYYCQQSNEDPYTFGQGTKVEIK
pKd: 8.35
--
binder: h22E11-VK1-39 × h22E11-VH1-69 (antibody, V domains shown, Humanized m22E11) VH: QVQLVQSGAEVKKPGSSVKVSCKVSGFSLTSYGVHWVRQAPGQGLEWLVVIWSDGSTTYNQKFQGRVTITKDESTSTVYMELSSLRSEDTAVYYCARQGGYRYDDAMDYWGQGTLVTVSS VL: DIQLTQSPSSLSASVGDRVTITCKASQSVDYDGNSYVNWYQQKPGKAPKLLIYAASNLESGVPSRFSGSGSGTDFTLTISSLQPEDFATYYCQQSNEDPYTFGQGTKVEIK
pKd: 8.77
